# testDescription: Apparent volume of distribution in ICR mouse at 5 mg/kg, iv by LC-MS/MS analysis
# Type: ADME, organism-based
# assaySetup: in vivo, read-out: Vz
propertyMeasured: Vd (L/kg)
Could you give me the number in L/kg? Just the number is fine.

## Task Which Vd is listed for C[C@@](O)(C#Cc1ccc(F)c(-c2c[nH]c3cnc(N)nc23)c1)c1nccs1 ?
## Result 26
